substrate: OCCO; experiment: purified protein; assay type: biochemical, Paracoccus denitrificans; settings: 100 mM glycine-NaOH pH 10, 2.4 mM NAD+, 30 °C, oxidation
measured_endpoint: Km (mM)
// return numeric value only (unit: mM, not printed)

>  <protein>
EtgB (Paracoccus denitrificans PD1222; H47N/T44S) (protein, pET16b, His-tagged, E. coli BL21 AI, Ni-NTA purified; homotetramer; zinc-dependent medium-chain alcohol dehydrogenase) MAKTMKAAVVREFGKPLTIDEVPVPEPGPGMIQVRIQASGVCHSDLNAAEGDWPVKPNPPFIPGHEGVGFVSAVGAGVKHVKEGDRVGVPWLYTACGHCRHCLGGWETLCESQLNTGYSVNGGFADYVVADPNYVGHLPKNVDFLDIAPVLCAGVTVYKGLKVTDTKPGDWVVISGIGGLGHMAVQYAKAMGMNVAAVDIDDEKLALARKLGATVTVNAATEPDPAAAIRKQTDGGAQGVLVTAVGRKAFEQAIGMVARGGTVALNGLPPGDFPLDIFGMVLNGITVRGSIVGTRLDLQESLDFAGDGKVKATVHKAKLEDINNIFGQMHKGQIEGRMVLDMAG

>  <recorded_result>
11.51

$$$$
>  <protein>
EtgB, NAD-dependent alcohol dehydrogenase (Pden_2367) (enzyme, Paracoccus denitrificans DSM 413, The enzyme holds zinc ions; also called EtgB WT; alcohol dehydrogenase EtgB; source: E. coli BL21 AI, purified (Ni-NTA, desalting, size exclusion on Superdex 200 Increase)) MAKTMKAAVVREFGKPLTIDEVPVPEPGPGMIQVRIQASGVCHTDLHAAEGDWPVKPNPPFIPGHEGVGFVSAVGAGVKHVKEGDRVGVPWLYTACGHCRHCLGGWETLCESQLNTGYSVNGGFADYVVADPNYVGHLPKNVDFLDIAPVLCAGVTVYKGLKVTDTKPGDWVVISGIGGLGHMAVQYAKAMGMNVAAVDIDDEKLALARKLGATVTVNAATEPDPAAAIRKQTDGGAQGVLVTAVGRKAFEQAIGMVARGGTVALNGLPPGDFPLDIFGMVLNGITVRGSIVGTRLDLQESLDFAGDGKVKATVHKAKLEDINNIFGQMHKGQIEGRMVLDMAG

>  <recorded_result>
11.05

$$$$
>  <protein>
EtgB (Paracoccus denitrificans PD1222; H47N) (protein, pET16b, His-tagged, E. coli BL21 AI, Ni-NTA purified; homotetramer; zinc-dependent medium-chain alcohol dehydrogenase) MAKTMKAAVVREFGKPLTIDEVPVPEPGPGMIQVRIQASGVCHTDLNAAEGDWPVKPNPPFIPGHEGVGFVSAVGAGVKHVKEGDRVGVPWLYTACGHCRHCLGGWETLCESQLNTGYSVNGGFADYVVADPNYVGHLPKNVDFLDIAPVLCAGVTVYKGLKVTDTKPGDWVVISGIGGLGHMAVQYAKAMGMNVAAVDIDDEKLALARKLGATVTVNAATEPDPAAAIRKQTDGGAQGVLVTAVGRKAFEQAIGMVARGGTVALNGLPPGDFPLDIFGMVLNGITVRGSIVGTRLDLQESLDFAGDGKVKATVHKAKLEDINNIFGQMHKGQIEGRMVLDMAG

>  <recorded_result>
53.69

$$$$

// next entry
Input: Can you look up the measured Km of EtgB (Paracoccus denitrificans PD1222; T44S) (protein, pET16b, His-tagged, E. coli BL21 AI, Ni-NTA purified; homotetramer; zinc-dependent medium-chain alcohol dehydrogenase) MAKTMKAAVVREFGKPLTIDEVPVPEPGPGMIQVRIQASGVCHSDLHAAEGDWPVKPNPPFIPGHEGVGFVSAVGAGVKHVKEGDRVGVPWLYTACGHCRHCLGGWETLCESQLNTGYSVNGGFADYVVADPNYVGHLPKNVDFLDIAPVLCAGVTVYKGLKVTDTKPGDWVVISGIGGLGHMAVQYAKAMGMNVAAVDIDDEKLALARKLGATVTVNAATEPDPAAAIRKQTDGGAQGVLVTAVGRKAFEQAIGMVARGGTVALNGLPPGDFPLDIFGMVLNGITVRGSIVGTRLDLQESLDFAGDGKVKATVHKAKLEDINNIFGQMHKGQIEGRMVLDMAG for me?
Output: 10.17
